Tested on: isolated renal cortical cells (IRCC)
Test: Effect of antioxidant or biotransformation inhibitor pretreatment on TCNB cytotoxicity, LDH release in IRCC
Settings: 0.5 mM 3,4,5-TCNB, 30 min exposure, IRCC
Test readout: Effect of pretreatment on 3,4,5-TCNB cytotoxicity

(Q) Entry under review: CCCCOCCOCCOCc1cc2c(cc1CCC)OCO2 [PiBx, Piperonyl butoxide] . Reported Effect of pretreatment on 3,4,5-TCNB cytotoxicity?
(A) reduced

(Q) Entry under review: `Cn1cc[nH]c1=S` . Reported Effect of pretreatment on 3,4,5-TCNB cytotoxicity?
(A) reduced

(Q) Entry under review: `CCCCCCCCN` . Reported Effect of pretreatment on 3,4,5-TCNB cytotoxicity?
(A) reduced

----------
Test system: isolated renal cortical cells (IRCC)
Experiment: Effect of antioxidant or biotransformation inhibitor pretreatment on TCNB cytotoxicity, LDH release in IRCC
Details: pretreatment compound followed by 1.0 mM 2,4,5-TCNB, 90 min; mean ± S.E., n = 4
Marks after values point to notes of the source that are not given here.
Test readout: % of lactate dehydrogenase release, PreTx + TCNB

(Q) Entry under review: N[C@@H](CCC(=O)N[C@@H](CS)C(=O)NCC(=O)O)C(=O)O [Glutathione] . Reported % of lactate dehydrogenase release, PreTx + TCNB?
(A) 17 ± 2 ^d %

(Q) Entry under review: O=C(O)CC(S)C(=O)O (stereo not drawn) [Mercaptosuccinate] . Reported % of lactate dehydrogenase release, PreTx + TCNB?
(A) 24 ± 1 ^c %

(Q) Entry under review: Cn1cc[nH]c1=S [Methimazole] . Reported % of lactate dehydrogenase release, PreTx + TCNB?
(A) 23 ± 2 ^c %

(Q) Entry under review: O=C1O[C@H]([C@@H](O)CO)C(O)=C1O [Ascorbate] . Reported % of lactate dehydrogenase release, PreTx + TCNB?
(A) 16 ± 2 ^d %

(Q) Entry under review: Cc1c(C)c2c(c(C)c1O)CC[C@@](C)(CCC[C@H](C)CCC[C@H](C)CCCC(C)C)O2 [α–Tocopherol, α-Tocopherol] . Reported % of lactate dehydrogenase release, PreTx + TCNB?
(A) 14 ± 3 ^d %

(Q) Entry under review: COc1ccc2c(c1)c(CC(=O)O)c(C)n2C(=O)c1ccc(Cl)cc1 [Indomethacin] . Reported % of lactate dehydrogenase release, PreTx + TCNB?
(A) 21 ± 2 ^c %

(Q) Entry under review: CC(C)(C(=O)c1cccnc1)c1cccnc1 [Metyrapone] . Reported % of lactate dehydrogenase release, PreTx + TCNB?
(A) 28 ± 2 ^c %

(Q) Entry under review: CCCCCCCCN [n-Octylamine, N-Octylamine] . Reported % of lactate dehydrogenase release, PreTx + TCNB?
(A) 32 ± 2 ^c %

(Q) Entry under review: CC(=O)N[C@@H](CS)C(=O)O [NAC, N-acetyl-L-cysteine] . Reported % of lactate dehydrogenase release, PreTx + TCNB?
(A) 17 ± 1 ^d %
